Tested on: MIWI (PIWIL1) piRISC loaded with L1MC piRNA (30 nt);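 note: 1 nM active piRISC with 0.1 nM target library at 33 °C single turnover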
Assay: pre-steady-state target cleavage rate (min^-1); higher = faster piRNA-guided slicing of the target
Conditions: guide: L1MC piRNA 5'p-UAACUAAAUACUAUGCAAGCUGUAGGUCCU; auxiliary factor: none (no GTSF1)
The full ranking holds about 8,200 sequences; the median of “pre-steady-state target cleavage rate” is about 0.024, and the highest 2% start at about 1.3. This excerpt belongs to a sample that is enriched for the highest values.
Below, each of the sequences is paired with its reported pre-steady-state target cleavage rate value.

Residue Sequence	pre-steady-state target cleavage rate
UCGACCCUACAGCUUGCAUAGUAUUUAGUUA	0.0734
UCGACCUACAGCUUGCUUAGUAUUUAGUUA	0.0474
UCGACCAACAGGUUGCAUAGUAUUUAGUUA	0.0326
UGGACUCUACAGCUUGCAUAGUAUUUAGUUA	0.0856
UGGACCUAGAGCUUGCAUAGUAUUUAGAAA	0.0101
UCCACCUACAGCUUGGAAAGUAUUUAGUUA	0.00576
AGGACCUACAGCUUGCAUAGUAUUUUCUUA	0.03
UCCACCUAGAGCUUGCUUAGUAUUUAGUUA	0.0205
UCGACCUACAGCUUGGUUAGUAUUUAGUAA	0.00525
AGGACUCUACAGCUUGCAUAGUAUUUAGUUA	0.0617
UCCUGGAACAGCUUGGAUAGUAAUUAGUUA	0.0197
UCGACCUACAGCUUGCAUAGUAUUUAGCUUA	0.0283
UGGACUACAGCUUGCAUAGUAUUUAGUUA	0.0823
UCCUGGUACAGCUUGCAUGGUAUUUAGUUA	0.0741
UCCUGCUACAGCUUGCAUAGUCAUUUAGUUA	0.00362
UCGACCUACAGCUUGCAUAGUAUUUAGUUUA	0.0631
ACGACCUACAGCUUGCAUAGUAUUUAGAUA	0.0521
UCGACCUACAGCUUGCAUAGUAUUUAGUAA	0.0683
UCGACCUACAGCUUGGUUAGUAUUUAGUUA	0.00908
UCGACCUACAGCUUGCAUAGUAUUUAGUUC [g2:g28:cont:t1C]	0.0714
UCGACCAACAGCUUGCAUAGUAAUUAGUUA	0.0305
UCGUCCUAGAGCUUGCAUAGUAUUUAGUUA	0.0436
UCCUGGAACAGCUUGCAUAUAUUUAGUUA	0.0034
ACGACCUACAGCUUGCAUAGUAUUUAGUUA	0.0997
AGGACUACAGCUUGCAUAGUAUUUAGUUA	0.0945
UCCUCCAACAGCAUGCAUAGUAUUUAGUUA	0.0217
AGGACCAACAGCAUGCAUAGUAUUUAGUUA	0.0703

---

Test system: MIWI (PIWIL1) piRISC loaded with L1MC piRNA (30 nt);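 note: 1 nM active piRISC with 0.1 nM target library at 33 °C single turnover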
Experiment: pre-steady-state target cleavage rate (min^-1); higher = faster piRNA-guided slicing of the target
Conditions: guide: L1MC piRNA 5'p-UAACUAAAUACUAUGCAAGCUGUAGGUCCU; auxiliary factor: none (no GTSF1)
Over roughly 8,200 sequences, “pre-steady-state target cleavage rate” has its median near 0.024; the highest 2% begin near 1.3. The full list was thinned out, with the highest values kept by preference.
Label False if pre-steady-state target cleavage rate falls below 0.03; label True in every other case.

Residue Sequence	Classification
AGGGCCUACAGCUUGCAUAGUAUUUAGUUA	True
AGGACCUUCAGCUUGCAUAGUAUUUAGUUA	True
UGGAGGUACAGCUUGCAUAGUAUUUUCAAA	False
UGGAGCUACAGCUUGCAUAGUAUUUUGUUA	True
UCCUGGAUGUCCUUACAUAGUAUUUAGUUA	False
UGGGCCUACAGCUUGCAUAGUAUUUAGUUA	True
AGGACCUACAGGUAGCAUAGUAUUUAGUUA	False
UGGACCUACAGCUUGCAUAGUAUAUUAGUUA	True
UCCUGGAUCAGCAUUGCAUAGUAUUUAGUUA	False
UCCUGGAACAGGUUGCAUAGUAUUUACUUA	False
UCGACCUACAGCUUGCAAAGUAUAUAGUUA	False
AGGACCUACAGCUUGCAUAGUAUAUAGUAA	False

---

System: MIWI (PIWIL1) piRISC loaded with L1MC piRNA (30 nt);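 note: 1 nM active piRISC with 0.1 nM target library at 33 °C single turnover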
Test: pre-steady-state target cleavage rate (min^-1); higher = faster piRNA-guided slicing of the target
Details: guide: L1MC piRNA 5'p-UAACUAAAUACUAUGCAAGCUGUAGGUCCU; auxiliary factor: 500 nM mouse GTSF1
In all, about 8,200 sequences were measured (“pre-steady-state target cleavage rate”: median about 0.024, highest 2% from about 1.3 on). This is one part of a sample in which the highest values are shown more often than they occur.
Below, each of the sequences is paired with its reported pre-steady-state target cleavage rate value.

Residue Sequence	pre-steady-state target cleavage rate
UCGACCUAGCAGCUUGCAUAGUAUUUAGUUA	1.34
UCCACCUAGCAGCUUGCAUAGUAUUUAGUUA	0.833
UGGACCUACAGCUUGCUAUGUAUUUAGUUA	0.115
UGGAGGAACAGCUUGCAUAGUAUUUAGAAA	0.364
UGGACCUACUAGCUUGCAUAGUAUUUAGUUA	0.63
AGCACCUAGAGCUUGCAUAGUAUUUAGUUA	1.47
UGGACCUAGCAGCUUGCAUAGUAUUUAGUUA	1.59
UCCUCCUACAGUUGCAUAGUAUUUAGUUA	0.742
UGCACCUAGAGCUUGCAUAGUAUUUAGUUA	1.2
AGGACCUACAGGAAGCAUAGUAUUUUCAAA	0.132
UCCACCUAGAGCUUGCAUAGUAUUUAGUUA	0.593
UCGACCUACUAGCUUGCAUAGUAUUUAGUUA	0.784
UCCUCCUACAGCUUGCAUAGCUAUUUAGUUA	0.0221

---

Below, each of the sequences is paired with its reported pre-steady-state target cleavage rate value.
Test system: MIWI (PIWIL1) piRISC loaded with L1MC piRNA (30 nt);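 note: 1 nM active piRISC with 0.1 nM target library at 33 °C single turnover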
Test: pre-steady-state target cleavage rate (min^-1); MIWI and MILI are mouse PIWI proteins and EfPiwi is from a freshwater sponge; tags in brackets are library labels; higher = faster piRNA-guided slicing of the target;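 note: 1 nM active piRISC with 0.1 nM target library at 33 °C single turnover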
Conditions: guide: L1MC piRNA 5'p-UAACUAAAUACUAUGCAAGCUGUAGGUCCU; auxiliary factor: none (no GTSF1)
Over roughly 8,200 sequences, “pre-steady-state target cleavage rate” has its median near 0.024; the highest 2% begin near 1.3. Shown is part of a subset that was picked to be rich in the highest values.
Assay Metric: pre-steady-state target cleavage rate

Residue Sequence	Reported Result
UCCUGGAUCCGCUUGCAUAGUAUUUAGUUA	0.031
UCGACCUACAGCUUGCAUAGUAUUAAGAUA	0.00627
UGGACCUACAGCUUGCAUAGUAUUUAGUUA [g2:g29:cont:t1A]	0.0718
UCGACCUACAGCAUGCAUAGUAUUUAGUUA	0.0548
AGGCACCUACAGCUUGCAUAGUAUUUAGUUA	2.2
UCCUGGUUCAGCAUGCAUAGUAUUUAGUUA	0.0172
UCCUGGUACAGCUUGCAUAGUAUUUUGAUA	0.00994
UCCUGGUACAGCUUGCAUCGUAUUUAGUUA	0.0269
UGGACCAUGAGCUUGCAUAGUAUUUACAAA	0.00423
UCCUGCUUCAGCUUGCAUAGUAUUUAGUUA	0.0684
UGGACGUACUGCUUGCAUAGUAUUUAGUUA	0.056
UCCUGGAACAGCUUGCAUAGUUUUUUGUUA	0.0238
UCGACCUACAGCAUUGCAUAGUAUUUAGUUA	0.0581
UGGACCUACAGGUUGCAUAGUAAUUAGUUA	0.0177
UGGACCUACAGUUUGCAUAGUAUUUAGUUA	0.0675
UCCUGGAACAGCUUGCAAUGUAUUUAGUAA	0.00598
UCCACCAACAGCUUCCAUAGUAUUUAGUUA	0.00399
AGGACCUACUGCUUGCAUAGUAUUUAGAUA	0.0411
UCGACCUACAGUUUGCAUAGUAUUUAGUUA	0.0619
UCCUGCUACAGCUAGCAUAGAAUUUAGUUA	0.0108
UGGACCUUCAGCUUGCAUAGUAUAUAGUUA	0.0376
UCGACCUACAGCUUGGAUAGUAUUUAGAAA	0.00679
UGGCCCUACAGCUUGCAUAGUAUUUAGUUA	0.0833
UCCUCCUUCAGCUAGCAUAGUAUUUAGUUA	0.0147
UCCACCUAGAGCUUGCAUAGUAUUUAGAUA	0.00955
UCCACCUACUGCUUGCAUAGUAUUUACUUA	0.0254
UCGACCUACAGCUUGCAUAGUAAUUAGUUA	0.0469
UCCUGGUACAGCUUGCAUAGUAUUCUAGUUA	0.00651
UCCUGGUAAAGCUUGCAUAGUAUUUAGUUA	0.0419
UCCACCUACAGUUUGCAUAGUAUUUAGUUA	0.0474
AGGACCUACAGCUUGCUAGUAUUUAGUUA	0.00501
UCCUGGUACAGCUUGCAUAGUUUUUAGAUA	0.00988
UCCUGGUUCAGCUUGCAUAGUAUUUACUUA	0.0237
UCCUGGUACAGCUUGCAUAGUUUUUAGUAA	0.0195
AGGACCUACAGCUUGCUUAGUAUUUAGUAA	0.0262
AGGACCUACAGCUUGCUUAGUAUUUAGUUA	0.066
AGCACCUACAGCAUGCAUAGUAUUUAGUUA	0.0663
AGGACCUACAGUUUGCAUAGUAUUUAGUUA	0.0653
UCCUGGAACAGCUUGCAUGUAUUUAGUUA	0.00591
UGGACGUACAGCUUGCAUAGUAUUUUCAAA	0.00471
UGGAGCUACAGCUUGCUUAGUAUUUAGUUA	0.0391
UCCUGGAUGUGCUUGGAUACUAUUUAGUUA	0.0033
AGGACCUACAGCUUGCAUAGUAUUAGUUA	0.00372
UGGACCUACAGCUUGCUUAGUAUUUAGUAA	0.0335
UCCUCCUACAGCUUGCAUACUAUUUACUUA	0.018
AGGCCUACAGCUUGCAUAGUAUUUAGUUA	0.107
UCCUGCUUCAGCAUGCAUAGUAUUUAGUUA	0.0171
UCCUGCUUCAGCUAGCAUAGUAUUUAGUUA	0.0109
AGGACCUACUGCUUGCAUAGUAUUUAGUAA	0.0651
UGGACCUACAGCUUGCAUAGUAUUAAGAUA	0.00558
UCCUGCUACAGCUUGCAAAGUAUUUAGAAA	0.00338
UCCUGCUACAGGUUGCAUAGUAUUUAGUUA	0.0257
UCGACCUACAGUUGCAUAGUAUUUAGUUA	0.00747
UCGAGCUACAGCUUGCUUAGUAUUUAGUUA	0.0376
AUGGACCUACAGCUUGCAUAGUAUUUAGUUA	0.0872
